biological target: BRD9 (Homo sapiens, UniProt Q9H8M2); assay: Degradation of BRD9 (IF), immunofluorescence in MV4-11 cells, 24 hours (Assay Protocol 2); type: cell-based; parameters: A suspension of MV4-11 cells (ATCC CRL-9591) was prepared; host or cells: MV4-11; conditions: Assay protocol 2; BRD9 degradation; read-out: DC50
reported endpoint: DC50

molecule	test target	DC50
COCC1(/C=C(\C#N)C(=O)N2CCc3c(CN4CCN(Cc5c(OC)cc(-c6cn(C)c(=O)c(C)c6C)cc5OC)CC45CC5)cccc3C2C)CC1 (mixture of isomers)	BRD9 (Homo sapiens, UniProt Q9H8M2)	< 1.25 nM
COc1cc(-c2cn(C)c(=O)c(C)c2C)cc(OC)c1CN1CCN(Cc2ccc3c(c2)C(C)N(C(=O)/C(C#N)=C/C(C)(C)CCl)CC3)C2(CC2)C1 (single isomer, unassigned)	BRD9 (Homo sapiens, UniProt Q9H8M2)	1.25 to 10 nM

BRD9 (Homo sapiens, UniProt Q9H8M2) assay, molecule COc1cc(-c2cn(C)c(=O)c(C)c2C)cc(OC)c1CN1CCN(Cc2cccc3c2CCN(C(=O)/C(C#N)=C/c2cccc(Br)n2)C3C)CC12CC2 (mixture of isomers) , recorded DC50 = 1.25 to 10 nM

BRD9 (Homo sapiens, UniProt Q9H8M2) assay, molecule COc1cc(-c2cn(C)c(=O)c(C)c2C)cc(OC)c1CN(C)Cc1ccc2c(c1)C(C)N(C(=O)/C(C#N)=C/c1cccc(Br)n1)CC2 (mixture of isomers) , recorded DC50 = < 1.25 nM

BRD9 (Homo sapiens, UniProt Q9H8M2) assay, molecule COc1cc(-c2cn(C)c(=O)c(C)c2C)cc(OC)c1CN1C[C@H](C)N(Cc2cccc3c2CCN(C(=O)/C(C#N)=C/C(C)(C)C)C3C(C)C)C[C@H]1C (mixture of isomers) , recorded DC50 = 25 to 1000 nM

* * *

Target: BRD9 (Homo sapiens)
Sequence (Q9H8M2 1-597): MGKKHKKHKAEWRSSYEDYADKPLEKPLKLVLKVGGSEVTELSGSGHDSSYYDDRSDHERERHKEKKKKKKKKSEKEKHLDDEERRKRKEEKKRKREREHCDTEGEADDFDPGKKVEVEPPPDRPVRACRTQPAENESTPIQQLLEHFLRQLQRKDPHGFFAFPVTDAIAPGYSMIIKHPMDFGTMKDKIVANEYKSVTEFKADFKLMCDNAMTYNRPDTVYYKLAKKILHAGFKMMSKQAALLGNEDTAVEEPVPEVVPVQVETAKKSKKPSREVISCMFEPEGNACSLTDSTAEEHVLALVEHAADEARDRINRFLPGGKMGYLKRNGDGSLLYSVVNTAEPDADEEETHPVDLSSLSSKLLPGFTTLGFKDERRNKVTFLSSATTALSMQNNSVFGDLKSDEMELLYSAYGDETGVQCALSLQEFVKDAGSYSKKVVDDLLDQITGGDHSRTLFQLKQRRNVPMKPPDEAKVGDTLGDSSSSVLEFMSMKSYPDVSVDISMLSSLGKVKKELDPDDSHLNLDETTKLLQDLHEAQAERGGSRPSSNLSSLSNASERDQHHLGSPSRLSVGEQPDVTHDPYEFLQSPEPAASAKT
Assay: Degradation of BRD9 (IF), immunofluorescence in MV4-11 cells, 24 hours (Assay Protocol 2)
Type: cell-based
Design: A suspension of MV4-11 cells (ATCC CRL-9591) was prepared; host or cells: MV4-11
Settings: MV4-11, 24 h, Table 2; BRD9 degradation (IF), Assay Protocol 2, MV4-11 cells; read-out: Assay 2 DCmax
reported endpoint: Dmax

Measured Dmax, COc1cc(-c2cn(C)c(=O)c3cnccc23)cc(OC)c1CN1CCN(Cc2cccc3c2CCN(C(=O)/C(C#N)=C/C2(C)CC2)C3C)CC1 (mixture of isomers) [Compound A26] : 40 to 70%

Measured Dmax, COc1cc(-c2cn(C)c(=O)c3cnccc23)cc(OC)c1CN1CCCN(Cc2cccc3c2CCN(C(=O)/C(C#N)=C/C(C)(C)C)C3C)CC1 (mixture of isomers) [Compound A31] : 40 to 70%

Measured Dmax, COc1cc(-c2cn(C)c(=O)c3cnccc23)cc(OC)c1CN1CCN(Cc2cccc3c2CCN(C(=O)/C(C#N)=C/c2ncccc2F)C3C)CC1 (mixture of isomers) [Compound A42] : 40 to 70%

* * *

target: BRD9 (Homo sapiens, UniProt Q9H8M2); assay: BRD9 degradation, HiBiT-BRD9 KI HEK293 (LgBiT) cells, NanoGlo Lytic Endpoint assay (Assay Protocol 1); type: cell-based; conditions: HEK293; Assay protocol 1; BRD9 degradation; read-out: Dmax
reported endpoint: Dmax

molecule	test target	observed result
COc1cc(-c2cn(C)c(=O)c(C)c2C)cc(OC)c1CN1CCN(Cc2cccc3c2CCN(C(=O)/C(C#N)=C/c2nc(C(F)(F)F)cs2)C3C)CC1 (mixture of isomers) [Compound B11]	BRD9 (Homo sapiens, UniProt Q9H8M2)	> 75%

Measured Dmax, COc1cc(-c2cn(C)c(=O)c(C)c2C)cc(OC)c1CN1CC2(C1)CN(c1cccc(C3CCCN3C(=O)/C(C#N)=C/C(C)(C)C)c1)C2 (mixture of isomers) [Compound B58] : 40 to 70%

Measured Dmax, COc1cc(-c2cn(C)c(=O)c(C)c2C)cc(OC)c1CN(C)Cc1cccc2c1CCN(C(=O)/C(C#N)=C/c1cccc(Br)n1)C2C (mixture of isomers) [Compound B14] : > 75%

* * *

Below, each of the molecules is paired with its reported Dmax value.
molecular target: BRD9 (Homo sapiens); experiment: Degradation of BRD9 (IF), immunofluorescence in MV4-11 cells, 24 hours (Assay Protocol 2); assay type: cell-based; design: A suspension of MV4-11 cells (ATCC CRL-9591) was prepared; host or cells: MV4-11; conditions: MV4-11, Assay protocol 2; BRD9 degradation; read-out: Dmax

For orientation, consider the following solved cases.
molecule	observed result
COc1cc(-c2cn(C)c(=O)c(C)c2C)cc(OC)c1CN1CCN(Cc2ccc3c(c2)[C@@H](C)N(C(=O)/C(C#N)=C/C2(OC)CC2)CC3)C2(CC2)C1 (single isomer, unassigned)	> 75%
COc1cc(-c2cn(C)c(=O)c(C)c2C)cc(OC)c1CN1CC(=O)N(Cc2cccc3c2CCN(C(=O)/C(C#N)=C/C(C)(C)C)C3C)C(C)(C)C1 (stereo not shown)	> 75%
CC[C@@H]1CN(Cc2cccc3c2CCN(C(=O)/C(C#N)=C/C(C)(C)C)C3C)CCN1Cc1c(OC)cc(-c2cn(C)c(=O)c(C)c2C)cc1OC (mixture of isomers)	70 to 75%
COc1cc(-c2cn(C)c(=O)c(C)c2C)cc(OC)c1CN1CCN(Cc2cccc3c2CCN(C(=O)/C(C#N)=C/C2(C(F)(F)F)CC2)C3C)C2(CC2)C1 (mixture of isomers)	> 75%
COc1cc(-c2cn(C)c(=O)c(C)c2C)cc(OC)c1CN1CCN(Cc2cccc3c2CCN(C(=O)/C(C#N)=C/c2cc(C)on2)C3C)CC1 (mixture of isomers)	40 to 70%

Measured Dmax, COc1cc(-c2cn(C)c(=O)c(C)c2C)cc(OC)c1CN1CCN(Cc2cccc3c2CCN(C(=O)/C(C#N)=C/c2cc(C(F)(F)F)ccn2)C3C)CC1 (mixture of isomers) : > 75%

Measured Dmax, COc1cc(-c2cn(C)c(=O)c(C)c2C)cc(OC)c1CN1CCCN(c2ccc3c(c2)[C@H](C)N(C(=O)/C(C#N)=C/C(C)(C)CF)CC3)CC1 (mixture of isomers) : 40 to 70%

Measured Dmax, COc1cc(-c2cn(C)c(=O)c(C)c2C)cc(OC)c1CN1CCN(Cc2cccc3c2CCN(C(=O)/C(C#N)=C/C(C)(C)C)C3C(C)C)C2(CC2)C1 (mixture of isomers) : > 75%

Measured Dmax, COc1cc(-c2cn(C)c(=O)c(C)c2C)cc(OC)c1CN1CCN(Cc2cccc3c2CCN(C(=O)/C(C#N)=C/C(C)(C)C)[C@H]3C)C2(CC2)C1 (single isomer, unassigned) : > 75%

Measured Dmax, COc1cc(-c2cn(C)c(=O)c(C)c2C)cc(OC)c1CN1CC(N(C)Cc2ccc3c(c2)[C@H](C)N(C(=O)/C(C#N)=C/C(C)(C)C)CC3)C1 (single isomer, unassigned) : 40 to 70%

Measured Dmax, COc1cc(-c2cn(C)c(=O)c(C)c2C)cc(OC)c1CN1CCN(Cc2cccc3c2CCN(C(=O)/C(C#N)=C/C(C)(C)C)[C@@H]3C(C)C)CC12CC2 (single isomer, unassigned) : 40 to 70%

Measured Dmax, CCCC(c1cccc(CCC(=O)N2CCN(Cc3c(OC)cc(-c4cn(C)c(=O)c(C)c4C)cc3OC)CC2)c1)N(C)C(=O)/C(C#N)=C/c1nccs1 (mixture of isomers) : > 75%

Measured Dmax, COc1cc(-c2cn(C)c(=O)c(C)c2C)cc(OC)c1CN1CCC(Oc2cccc(C3CCCN3C(=O)/C(C#N)=C/C(C)(C)C)c2)CC1 (mixture of isomers) : > 75%

Measured Dmax, COc1ccc(/C=C(\C#N)C(=O)N2CCc3c(CN4CCN(Cc5c(OC)cc(-c6cn(C)c(=O)c(C)c6C)cc5OC)CC4)cccc3C2C)nc1 (mixture of isomers) : 40 to 70%

Measured Dmax, COc1cc(-c2cn(C)c(=O)c(C)c2C)cc(OC)c1CN1CCCN(Cc2ccc3c(c2)[C@@H](C)N(C(=O)/C(C#N)=C/C(C)(C)C)CC3)CC1 (single isomer, unassigned) : 40 to 70%

Measured Dmax, COc1cc(-c2cn(C)c(=O)c(C)c2C)cc(OC)c1CN1CCN(Cc2cccc3c2CCN(C(=O)/C(C#N)=C/C2CCC(F)(F)CC2)C3C)CC1 (mixture of isomers) : 40 to 70%

Measured Dmax, COc1cc(-c2cn(C)c(=O)c(C)c2C)cc(OC)c1CN1CCN(Cc2ccc3c(c2)[C@@H](C(C)C)N(C(=O)/C(C#N)=C/C(C)(C)C)CC3)C2(CC2)C1 (single isomer, unassigned) : 40 to 70%

Measured Dmax, COc1cc(-c2cn(C)c(=O)c(C)c2C)cc(OC)c1CN1CCN(Cc2ccc3c(c2)[C@@H](C)N(C(=O)/C(C#N)=C/C(C)(C)CF)CC3)C2(CC2)C1 (single isomer, unassigned) : > 75%

Measured Dmax, COc1cc(-c2cn(C)c(=O)c(C)c2C)cc(OC)c1CN1CCN(C(=O)COCCOc2ccc3c(c2)C(C)N(C(=O)/C(C#N)=C/c2nccs2)CC3)CC1 (mixture of isomers) : > 75%
